- ASSAY_TARGET: DR5: Nurr1–RXRα heterodimer (Homo sapiens)
- Construct: the activity of full-length human Nurr1 in cellular settings
- ASSAY_OVERVIEW: Full-length Nurr1 reporter gene assay on DR5 response element
- RECORDED_CONDITIONS: full-length human Nurr1 and RXRα overexpressed; HEK293T; mean ± SD
Form field: IC50 (one value per entry).

CCC(=O)NS(=O)(=O)c1ccc(-c2c(-c3ccccc3)noc2C)cc1 20 µM

Check the records and state IC50 for Cc1ccc(Cl)c(Nc2ccccc2C(=O)O)c1Cl
10.7 µM

====

Form field: EC50 (one value per entry).
- ASSAY_TARGET: NBRE: Nurr1 monomer (Homo sapiens, UniProt P43354)
- Construct: the activity of full-length human Nurr1 in cellular settings
- Sequence (P43354 whole entry): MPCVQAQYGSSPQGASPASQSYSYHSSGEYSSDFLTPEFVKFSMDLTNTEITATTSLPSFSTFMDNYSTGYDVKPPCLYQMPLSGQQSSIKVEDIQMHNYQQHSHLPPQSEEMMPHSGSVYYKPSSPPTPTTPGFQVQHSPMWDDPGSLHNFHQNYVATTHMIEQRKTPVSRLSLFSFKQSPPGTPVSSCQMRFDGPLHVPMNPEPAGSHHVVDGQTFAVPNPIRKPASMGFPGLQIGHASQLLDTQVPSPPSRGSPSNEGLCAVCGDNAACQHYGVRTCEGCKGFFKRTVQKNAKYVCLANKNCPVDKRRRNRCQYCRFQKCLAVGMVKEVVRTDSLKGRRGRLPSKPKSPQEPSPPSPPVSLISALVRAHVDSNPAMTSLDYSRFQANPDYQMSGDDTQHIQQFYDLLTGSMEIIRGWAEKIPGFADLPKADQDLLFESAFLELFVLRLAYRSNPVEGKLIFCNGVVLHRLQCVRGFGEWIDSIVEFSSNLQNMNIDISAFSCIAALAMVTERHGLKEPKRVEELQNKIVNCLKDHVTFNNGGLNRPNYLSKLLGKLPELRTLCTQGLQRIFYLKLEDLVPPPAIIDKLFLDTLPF
- ASSAY_OVERVIEW: Full-length Nurr1 reporter gene assay on NBRE response element
- RECORDED_CONDITIONS: full-length human Nurr1; HEK293T; mean ± SD
Could you give me the number in µM? Just the number is fine.

Check the records and state EC50 for CCN(CC)Cc1cc(Nc2ccnc3cc(Cl)ccc23)ccc1O [AQ, amodiaquine]
92

Check the records and state EC50 for CCN(CC)CCCC(C)Nc1ccnc2cc(Cl)ccc12 (centres unmarked) [CQ, chloroquine]
38
